Each recorded value in this set is attributed to patent US12037417B2.

Attribute: kd
target: human IgG (Homo sapiens); assay: SPR affinity analysis of IgG-binding peptides on immobilized IgG (BIAcore T200); parameters: unit not given here; details: SPR, peptides N-terminally blocked with biotinylated PEG4, NHS group hydrolysed
Sequence (P01857 1-328): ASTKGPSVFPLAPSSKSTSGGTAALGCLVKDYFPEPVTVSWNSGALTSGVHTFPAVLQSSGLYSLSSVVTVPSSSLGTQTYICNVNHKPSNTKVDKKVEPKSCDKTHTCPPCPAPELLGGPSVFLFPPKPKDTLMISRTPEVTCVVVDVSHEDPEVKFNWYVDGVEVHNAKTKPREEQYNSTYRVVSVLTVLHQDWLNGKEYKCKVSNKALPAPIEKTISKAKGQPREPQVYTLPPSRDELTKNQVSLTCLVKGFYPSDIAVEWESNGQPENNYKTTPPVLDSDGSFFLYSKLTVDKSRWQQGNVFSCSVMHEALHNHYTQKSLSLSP
// response body must contain only the number

GDDCAYHK(DSG-OH)GELVWCTFH-NH2 [Type I(R8K)-DSG-OH] = 0.1036

[in] Given the substance GPDCAYHRGELVWCTFH-NH2 [Type I] , write its reported kd.
[out] 0.0144

[in] Given the substance GDDCAYHK(DSS-OH)GELVWCTFH-NH2 [Type I(R8K)-DSS-OH] , write its reported kd.
[out] 0.06136

[in] Given the substance GDDCAYHKGELVWCTFH-NH2 [Type I(R8K)] , write its reported kd.
[out] 0.195
